test system: SNB-75 CNS; assay: NCI-60 one-dose screen, 48 h (100 = growth as untreated, 0 = no growth, -100 = all killed); settings: 10 µM unless noted
About 83,000 compounds went through this panel and 20% of them were active in at least one assay; those are over-represented in the sample as a whole.
Entries whose growth is below 50% take Yes; entries at or above 50% take No.

A selection of reference data follows.
{"COMPOUND": "COC(=O)c1c(C)c2n(c1C)C(=O)C(c1ccccc1)=C2", "LABEL_CLASS": "No"}
{"COMPOUND": "O=C(O)c1cn(C2CC2)c2cc(N3CCN(C(=O)N(c4ccccc4)c4nc(-c5ccccc5)cs4)CC3)c(F)cc2c1=O", "LABEL_CLASS": "Yes"}
{"COMPOUND": "C[C@@H](CO)[C@@H]1CCC=C2CC[C@]3(C)[C@H](CC[C@@H]4[C@@]5(C)CCCNC(C)(C)[C@@H]5CC[C@]43C)[C@H]21", "LABEL_CLASS": "No"}
{"COMPOUND": "CCC(=C(c1ccc(OCCN2CCCCC2)cc1)c1ccc(OCCN2CCCCC2)cc1)c1ccc(Cl)cc1", "LABEL_CLASS": "Yes"}
{"COMPOUND": "N#CC1=C(N)Oc2c(sc3c(Br)cccc23)C1c1ccc(Cl)cc1 (stereo not drawn)", "LABEL_CLASS": "Yes"}

**Query** Find out if reported growth for CCN(CC)c1ccc(\C=N/N=C(N)/C(N)=N\N=C/c2ccc(N(CC)CC)cc2)cc1 is less than 50%
**Result** No

====

tested on: SK-MEL-2 melanoma; assay: NCI-60 one-dose screen, 48 h; conditions: 10 µM unless noted
About 83,000 compounds went through this panel and 20% of them were active in at least one assay; those are over-represented in the sample as a whole. The source made the active and inactive calls. The calls were made as follows: active = growth percent below 10; inactive = the rest.
Thanks in advance; please answer with one of these: TRUE for active, FALSE for inactive

Worked cases, answers included:
{"COMPOUND": "Nc1cc(C(=O)NC[C@H]2CN(c3ccc(N4CCC(C(=O)O)CC4)cc3)C(=O)O2)ccc1Cl", "LABEL_CLASS": "FALSE"}
{"COMPOUND": "NC(=O)CSc1oc(-c2ccccc2)nc1S(=O)(=O)c1ccc(Br)cc1", "LABEL_CLASS": "FALSE"}
{"COMPOUND": "Cc1ccc(-c2nc([P+](c3ccccc3)(c3ccccc3)c3ccccc3)c(S(=O)(=O)c3ccc(C)cc3)o2)cc1", "LABEL_CLASS": "FALSE"}
{"COMPOUND": "Fc1cc2c(cc1Cl)N(c1ncnc3ccc(-c4ccc5n[nH]nc5c4)cc13)CC2", "LABEL_CLASS": "FALSE"}
{"COMPOUND": "O=C(/C=C/c1cccc(Cl)c1)c1ccc(Nc2nc(Nc3ccc(F)cc3)nc(Nc3ccc(Cl)cc3)n2)cc1", "LABEL_CLASS": "FALSE"}

**Query** # fetch the recorded call for O=C1C(Cl)=C(Nc2ccc(S(=O)(=O)N3CCOCC3)cc2)C(=O)c2ccccc21 here
**Result** FALSE

**Query** Record lookup: outcome of this test for Cc1ccc(NC(=O)c2sc3nc(C)c(Br)c(C)c3c2N)cc1 ?
**Result** FALSE

**Query** Could you kindly confirm the outcome this assay logged for CCC1=C[C@@H]2C[C@]3(C(=O)OC)c4[nH]c5ccccc5c4CC[N@+](CC(=O)Nc4cc5c(cc4OC)N(C)[C@H]4[C@@](O)(C(=O)OC)[C@H](OC(C)=O)[C@]6(CC)C=CCN7CC[C@]54[C@@H]76)(C2)[C@H]13 ?
**Result** FALSE

**Query** Query: recorded result category for COc1ccc(\C=N/N=C(N)/C(N)=N\N=C/c2ccc(OC)cc2)cc1 in this test
**Result** FALSE

**Query** Hi team, can someone confirm the assay call for O=C(CSc1oc(-c2ccccc2)nc1S(=O)(=O)c1ccccc1)Nc1ccc(F)cc1 ?
**Result** FALSE

**Query** What classification did CCO/C=N/C1=C(C#N)C(c2ccc(Cl)cc2)c2sc3c(F)cccc3c2O1 (stereo unspecified) end up with in this test?
**Result** FALSE

**Query** Kindly provide the recorded test outcome for the following compound: CN1C(=O)/C(=C\c2c(Cl)cccc2Cl)c2ccccc21
**Result** FALSE

**Query** Each compound tested received a call. Report the one for COc1cc2ncnc(Nc3ccc(S(=O)(=O)Nc4cc(C)on4)cc3)c2cc1OCCCN1CCN(c2ccc(F)cc2)CC1 .
**Result** FALSE

**Query** I would be grateful if you could indicate the recorded call for C=C(CBr)[C@@H]1CC[C@]2(C(=O)O)CC[C@]3(C)[C@H](CC[C@@H]4[C@@]5(C)CCC(=O)C(C)(C)[C@@H]5CC[C@]43C)[C@@H]12 .
**Result** FALSE

**Query** Check the results log: what was the call for C=C(C)[C@@H]1CC[C@]2(C(=O)N3CCOCC3)CC[C@]3(C)[C@H](CC[C@@H]4[C@@]5(C)C/C(=C/c6ccncc6)C(=O)C(C)(C)[C@@H]5CC[C@]43C)[C@@H]12 ?
**Result** FALSE
